Exercise: for every item that follows, state its recorded 5-HT2B receptor agonism (% of positive control) 1000 nM.
molecular target: 5-HT2B receptor (Homo sapiens, UniProt P41595); construct: host or cells: CHO-K1; test: 5-HT2B receptor agonism, IP-1 accumulation in CHO-K1 cells without prior 5-HT stimulation; assay type: cell-based; conditions: 1000 nM compound; % of IP-1 accumulation induced by 5-HT (1 uM)
Sequence (P41595 whole entry): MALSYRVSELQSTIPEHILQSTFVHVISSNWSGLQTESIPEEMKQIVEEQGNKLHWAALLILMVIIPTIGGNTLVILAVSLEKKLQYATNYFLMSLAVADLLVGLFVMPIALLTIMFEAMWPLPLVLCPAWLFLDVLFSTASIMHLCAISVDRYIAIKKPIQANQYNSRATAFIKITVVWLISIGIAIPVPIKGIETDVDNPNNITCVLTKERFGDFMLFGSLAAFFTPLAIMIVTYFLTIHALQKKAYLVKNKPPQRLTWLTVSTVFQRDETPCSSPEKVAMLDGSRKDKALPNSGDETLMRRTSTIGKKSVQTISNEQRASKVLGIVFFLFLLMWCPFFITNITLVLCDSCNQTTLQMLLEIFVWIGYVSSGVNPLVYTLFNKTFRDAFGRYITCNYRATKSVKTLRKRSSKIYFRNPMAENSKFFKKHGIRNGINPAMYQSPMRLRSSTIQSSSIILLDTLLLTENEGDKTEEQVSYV
Return type: number; implicit unit %.

Exercise: Could you please provide reported 5-HT2B receptor agonism (% of positive control) 1000 nM for CC1CN(C(=N)N)c2ccc3c(F)cccc3c21 (stereo not shown) ? Thanks!
Solution: −1

Exercise: Could you please provide reported 5-HT2B receptor agonism (% of positive control) 1000 nM for CC1CN(C(=N)N)c2ccc3c(Br)cccc3c21.Cl (stereo not shown) ? Thanks!
Solution: −4

Exercise: Could you please provide reported 5-HT2B receptor agonism (% of positive control) 1000 nM for CC1CN(C(=N)N)c2ccc3c(Cl)cccc3c21.Cl (stereo not shown) ? Thanks!
Solution: 1

Exercise: Could you please provide reported 5-HT2B receptor agonism (% of positive control) 1000 nM for CC1CN(C(=N)N)c2ccc3cc(F)ccc3c21.Cl (stereo not shown) ? Thanks!
Solution: 0

###

biological target: 5-HT2B receptor (Homo sapiens); construct: host or cells: CHO-K1; assay: 5-HT2B receptor binding, ligand displacement assay with 3H-LSD radioligand; conditions: 10 nM compound, human receptor in CHO-K1
Counter-ions that a name gives are not always drawn.
Respond with class 1 for inhibition at 0.01 µM values of 60% and above, class 0 for values below.

Exercise: Exam item: decide whether the reported inhibition at 0.01 µM for CCCCNC(=N)N1CC(C)c2c1ccc1c(Br)cccc21 (stereo not shown) is at least 60%.
Solution: class 1

Exercise: Exam item: decide whether the reported inhibition at 0.01 µM for CC1CN(C(=N)N)c2ccc3c(-c4ccccc4)cccc3c21 (stereo not shown) [Example 41, hydrochloride] is at least 60%.
Solution: class 0

Exercise: Exam item: decide whether the reported inhibition at 0.01 µM for CCCc1cccc2c3c(ccc12)N(C(=N)N)CC3C (stereo not shown) [Example 43, hydrochloride] is at least 60%.
Solution: class 1

Exercise: Exam item: decide whether the reported inhibition at 0.01 µM for CC1CN(C(=N)NCc2ccccc2)c2ccc3ccccc3c21 (stereo not shown) [Example 8, hydrochloride] is at least 60%.
Solution: class 1

Exercise: Exam item: decide whether the reported inhibition at 0.01 µM for CC1CN(C(=N)N)c2ccc3cc(F)ccc3c21.Cl (stereo not shown) [Example 1, hydrochloride] is at least 60%.
Solution: class 0

Exercise: Exam item: decide whether the reported inhibition at 0.01 µM for CC1CN(C(=N)N)c2cc(F)c3c(Cl)cccc3c21 (stereo not shown) [Example 45, hydrochloride] is at least 60%.
Solution: class 1

Exercise: Exam item: decide whether the reported inhibition at 0.01 µM for COCCNC(=N)N1CC(C)c2c1ccc1c(Br)cccc21 (stereo not shown) is at least 60%.
Solution: class 1

Exercise: Exam item: decide whether the reported inhibition at 0.01 µM for CC1CN(C(=N)NCC(F)(F)F)c2ccc3c(Br)cccc3c21 (stereo not shown) is at least 60%.
Solution: class 1

Exercise: Exam item: decide whether the reported inhibition at 0.01 µM for COc1cc2c(c3ccccc13)C(C)CN2C(=N)N (stereo not shown) [Example 44, hydrochloride] is at least 60%.
Solution: class 0

Exercise: Exam item: decide whether the reported inhibition at 0.01 µM for CC1CN(C(=N)NCc2ccc(Cl)cc2)c2ccc3ccccc3c21 (stereo not shown) [Example 9, hydrochloride] is at least 60%.
Solution: class 0

Exercise: Exam item: decide whether the reported inhibition at 0.01 µM for CC1CN(C(=N)N)c2ccc3c(C4CC4)cccc3c21 (stereo not shown) [Example 42, hydrochloride] is at least 60%.
Solution: class 0

Exercise: Exam item: decide whether the reported inhibition at 0.01 µM for C#CCNC(=N)N1CC(C)c2c1ccc1c(Br)cccc21 (stereo not shown) is at least 60%.
Solution: class 1

Exercise: Exam item: decide whether the reported inhibition at 0.01 µM for CC1CN(C(=N)N)c2ccc3c(F)cccc3c21 (stereo not shown) is at least 60%.
Solution: class 1

Exercise: Exam item: decide whether the reported inhibition at 0.01 µM for CCCCNC(=N)N1CC(C)c2c1ccc1ccccc21 (stereo not shown) [Example 7, hydrochloride] is at least 60%.
Solution: class 1

Exercise: Exam item: decide whether the reported inhibition at 0.01 µM for CC1CN(C(=N)N)c2ccc3c(Cl)cccc3c21.Cl (stereo not shown) [Example 11, hydrochloride] is at least 60%.
Solution: class 1

Exercise: Exam item: decide whether the reported inhibition at 0.01 µM for CNC(=N)N1CC(C)c2c1ccc1ccccc21 (stereo not shown) [Example 6, hydrochloride] is at least 60%.
Solution: class 0

Exercise: Exam item: decide whether the reported inhibition at 0.01 µM for CC1CN(C(=N)N)c2cnc3ccccc3c21 (stereo not shown) [Example 5, hydrochloride] is at least 60%.
Solution: class 0

Exercise: Exam item: decide whether the reported inhibition at 0.01 µM for CC1CN(C(=N)NCc2ccc(F)cc2)c2ccc3c(Br)cccc3c21 (stereo not shown) is at least 60%.
Solution: class 1

###

target: 5-HT2B receptor (Homo sapiens, UniProt P41595); construct: host or cells: CHO-K1; test: 5-HT2B receptor binding, ligand displacement assay with 3H-LSD radioligand; conditions: 100 nM compound, human receptor in CHO-K1
Counter-ions that a name gives are not always drawn.
Exercise: for every item that follows, state its recorded inhibition at 0.1 µM.
Return type: number; implicit unit %.

Exercise: Could you please provide reported inhibition at 0.1 µM for CNC(=N)N1CC(C)c2c1ccc1ccccc21 (centres unmarked) [Example 6, hydrochloride] ? Thanks!
Solution: 93

Exercise: Could you please provide reported inhibition at 0.1 µM for CC1CN(C(=N)N)c2ccc3c(F)cccc3c21 (centres unmarked) ? Thanks!
Solution: 101

Exercise: Could you please provide reported inhibition at 0.1 µM for CC1CN(C(=N)NCc2ccc(F)c(F)c2)c2ccc3ccccc3c21 (centres unmarked) [Example 10, hydrochloride] ? Thanks!
Solution: 91

Exercise: Could you please provide reported inhibition at 0.1 µM for CC1CN(C(=N)N)c2cc(F)c3c(Cl)cccc3c21 (centres unmarked) [Example 45, hydrochloride] ? Thanks!
Solution: 98

Exercise: Could you please provide reported inhibition at 0.1 µM for CC1CN(C(=N)N)c2ccc3c(-c4ccccc4)cccc3c21 (centres unmarked) [Example 41, hydrochloride] ? Thanks!
Solution: 40

###

Exercise: for every item that follows, state its recorded inhibition at 0.01 µM.
biological target: 5-HT2B receptor (Homo sapiens); construct: host or cells: CHO-K1; assay: 5-HT2B receptor binding, ligand displacement assay with 3H-LSD radioligand; conditions: 10 nM compound, human receptor in CHO-K1
Structures can show the parent of a compound that is named as a salt.
Don't forget the unit after the value.

Exercise: Could you please provide reported inhibition at 0.01 µM for CC1CN(C(=N)Nc2ccc(F)cc2)c2ccc3c(Br)cccc3c21 (centres unmarked) [Example 30] ? Thanks!
Solution: 105%

Exercise: Could you please provide reported inhibition at 0.01 µM for CC1CN(C(=N)NCc2ccc(F)c(F)c2)c2ccc3ccccc3c21 (centres unmarked) [Example 10, hydrochloride] ? Thanks!
Solution: 50%

Exercise: Could you please provide reported inhibition at 0.01 µM for CC1CN(C(=N)N)c2ccc3ccccc3c21.Cl (centres unmarked) [Example 3, hydrochloride] ? Thanks!
Solution: 63%

Exercise: Could you please provide reported inhibition at 0.01 µM for CC1CN(C(=N)N)c2ccc3c(Br)cccc3c21.Cl (centres unmarked) [Example 2, hydrochloride] ? Thanks!
Solution: 96%

Exercise: Could you please provide reported inhibition at 0.01 µM for CC1CN(C(=N)N)c2ncc3ccccc3c21 (centres unmarked) [Example 4, hydrochloride] ? Thanks!
Solution: 16%

###

molecular target: 5-HT2B receptor (Homo sapiens, UniProt P41595); construct: host or cells: CHO-K1; experiment: 5-HT2B receptor antagonism, inhibition of 5-HT stimulated IP-1 accumulation (HTRF) in CHO-K1 cells; type: cell-based; details: 10 nM compound, 5-HT (5 nM) stimulated IP-1 accumulation
Respond with Condition met for inhibition at 0.01 µM values of 80% and above, Condition not met for values below.

Exercise: Exam item: decide whether the reported inhibition at 0.01 µM for CC1CN(C(=N)N)c2ccc3cc(F)ccc3c21.Cl (centres unmarked) [Example 1, hydrochloride] is at least 80%.
Solution: Condition not met

Exercise: Exam item: decide whether the reported inhibition at 0.01 µM for CC1CN(C(=N)N)c2ccc3c(Br)cccc3c21.Cl (centres unmarked) [Example 2, hydrochloride] is at least 80%.
Solution: Condition met

Exercise: Exam item: decide whether the reported inhibition at 0.01 µM for CC1CN(C(=N)N)c2ccc3ccccc3c21.Cl (centres unmarked) [Example 3, hydrochloride] is at least 80%.
Solution: Condition not met

Exercise: Exam item: decide whether the reported inhibition at 0.01 µM for CC1CN(C(=N)N)c2ccc3c(Cl)cccc3c21.Cl (centres unmarked) [Example 11, hydrochloride] is at least 80%.
Solution: Condition met
